Listed below: Binding affinity (RU) values for each entry.
# test-system: acetylcholine receptor
# assay: SPR, receptor immobilized on CM5 chip, peptide 10 uM
Give a bare numeral; the unit RU is implied.

Consider the reported Binding affinity (RU) for these binders:
KRWVQR [6mer-1-285]	122
RWIQKR [6mer-2-433]	139
RLLTRR [6mer-2-466]	142

Below: the item to evaluate.
// sample KKLFYR [6mer-1-306] , its Binding affinity (RU) was 135
